# Test system: human left internal mammary artery (LIMA)
# TEST SUMMARY: Vascular ring physiology, isolated human left internal mammary artery rings
# ASSAY SETUP: Homo sapiens, read-out: Apparent EC50, relaxation (R), LIMA
Listed here: items and their measured EC50.
# unit: µM | format: bare number

Reference set (2 entries):
>>> test_result("CN")
230
>>> test_result("OO [H2O2, hydrogen peroxide]")
162

Now, please, on to the next compound.
C=O yielded EC50 of 315

====

# ASSAY SYSTEM: SSAO activity in homogenized human RA (Homo sapiens, UniProt Q16853)
# Construct: Blood vessel segments were homogenized in Sorensen's Na^+/K^+-phosphate buffered solution
# Sequence (Q16853 whole entry): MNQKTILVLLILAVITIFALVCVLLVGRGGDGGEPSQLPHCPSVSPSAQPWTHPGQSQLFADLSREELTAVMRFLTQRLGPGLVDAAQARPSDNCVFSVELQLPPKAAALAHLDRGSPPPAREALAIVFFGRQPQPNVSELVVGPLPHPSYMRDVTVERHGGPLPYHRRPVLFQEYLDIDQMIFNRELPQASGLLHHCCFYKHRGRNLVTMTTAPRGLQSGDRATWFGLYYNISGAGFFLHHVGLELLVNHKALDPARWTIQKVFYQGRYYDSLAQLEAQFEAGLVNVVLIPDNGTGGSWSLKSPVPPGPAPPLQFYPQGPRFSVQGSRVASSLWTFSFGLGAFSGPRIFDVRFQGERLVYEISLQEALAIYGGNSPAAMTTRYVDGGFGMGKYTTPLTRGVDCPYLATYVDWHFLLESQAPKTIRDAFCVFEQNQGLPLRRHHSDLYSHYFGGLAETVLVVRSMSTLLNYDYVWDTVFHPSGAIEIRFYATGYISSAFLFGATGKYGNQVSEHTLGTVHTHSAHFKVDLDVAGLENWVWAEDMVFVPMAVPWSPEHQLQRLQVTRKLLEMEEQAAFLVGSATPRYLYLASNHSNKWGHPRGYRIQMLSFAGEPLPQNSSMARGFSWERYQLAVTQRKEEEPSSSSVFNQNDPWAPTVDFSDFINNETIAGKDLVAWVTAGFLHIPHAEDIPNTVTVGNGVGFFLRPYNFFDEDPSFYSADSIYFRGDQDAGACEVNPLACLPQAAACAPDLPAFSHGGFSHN
# TEST SUMMARY: Radiometric SSAO assay (14C-benzylamine), homogenized RA
# ASSAY SETUP: homogenate preincubated 20 min, 37° C.; n=10
PARAMETER MEASURED: IC50 (µM)
All answers are understood in µM, so give the number only.

Record NNC(N)=O [semicarbazide] . Reported IC50: 21.2

Just for reference, patent US20050180956A1 is where these values come from.
